Test system: ragweed (common ragweed, Ambrosia elatior)
runDescription: Test C greenhouse herbicide test, pre- and postemergence
Format: in vivo
protocolConditions: Preemergence, 250 g ai/ha; scale 0 to 100 (0 no effect, 100 complete control)
In this section we review reported Ragweed plant response rating values for a set of compounds.
The answer should be a number; do not append a unit.

Sample answers from the record:
The recorded Ragweed plant response rating for entry `CCOC(=O)Oc1c(C)nn(C)c(=O)c1-c1c(C)sc2ccc(C)cc12` equals 95

Looking up `CC(=O)Oc1c(Br)nn(C)c(=O)c1-c1c(C)ccc2ccccc12` , I see its Ragweed plant response rating listed as 95

GET /value?item= `CCC(=O)Oc1c(C)nn(C)c(=O)c1-c1c(C)sc2ccc(C)cc12` &field=Ragweed plant response rating returns 100

Further cases:
// field: Ragweed plant response rating; key: `Cc1sc2ccc(Cl)cc2c1-c1c(OS(C)(=O)=O)c(Cl)nn(C)c1=O` ; value = 98

# Ragweed plant response rating (compound: `CCCC(=O)Oc1c(C)nn(C)c(=O)c1-c1c(C)sc2c(C)cc(C)cc12` ) is 95

Form: compound = `COC(=O)Oc1c(Br)nn(C)c(=O)c1-c1c(C)ccc2ccccc12` ; Ragweed plant response rating = 100

Given item `CCC(=O)Oc1c(C)nn(C)c(=O)c1-c1c(C)sc2c(C)cc(C)cc12` , the value recorded as its Ragweed plant response rating is 90

The reported Ragweed plant response rating of the compound `Cc1cc(C)c2ccccc2c1-c1c(OS(C)(=O)=O)c(C)nn(C)c1=O` was 95
